Each entry below carries its recorded melting point.

MOLECULE: O=C(NC(Cc1ccccc1)C(=O)CCl)OCc1ccccc1 (stereo unspecified)
melting point: 107 to 108 °C
--
MOLECULE: O=C(O)CCC(=O)c1ccc2c(c1)OCCO2
melting point: 138 to 140 °C
--
MOLECULE: O=Cc1ccc(-c2ccccc2OC(F)(F)F)o1
melting point: 72 to 74 °C
--
MOLECULE: O=Cc1cccc2ccsc12
melting point: 42 to 43.5 °C
--
MOLECULE: Cc1ccc(S(=O)(=O)OC(C(F)(F)F)C(F)(F)F)cc1
melting point: 39 to 40 °C
--
MOLECULE: Nc1cccc(C(=O)O)c1C(=O)O
melting point: 170 to 180 °C

Proceed to the following item.
[Q] For the molecule "O=Cc1ccc(I)c(O)c1" , what melting point is on record?
[A] 131 to 132 °C
